molecular target: BCL6-NCOR2(SMRT) corepressor protein-protein interaction (Homo sapiens (Human), UniProt P41182); test: NanoBRET cell assay; assay type: cell-based; conditions: read-out: NanoBRET cell avg pIC50 (converted)
In plain terms, low IC50, meaning strictly below 1 µM, gives 1, and everything else gives -1.

- Compound: "Cn1c(=O)c2c(c3cc(Nc4nc(N5C6CCC5CC(O)C6)ncc4Cl)ccc31)N[C@@H](C1CC1)CCO2 (stereo partly shown) [Example 12f]"
  Assigned Label: 1
- Compound: "C[C@@H]1CN(c2ncc(Cl)c(Nc3ccc4c(c3)c3c(c(=O)n4C)OCC[C@H](C)N3)n2)C[C@H](C)O1 [Example 5g]"
  Assigned Label: -1
- Compound: "Cn1c(=O)c2c(c3cc(Nc4nc(N5C6COCC5CC(O)C6)ncc4Cl)cnc31)N[C@@H](C1CC1)CCO2 (stereo partly shown) [Example 11b]"
  Assigned Label: 1
- Compound: "CC1Nc2c(c(=O)n(C)c3ccc(Nc4nc(N5C[C@H](C)C[C@H](C)C5)ncc4Cl)cc23)C(=O)OC1C (mixture of isomers) [Example 8p]"
  Assigned Label: -1
- Compound: "Cn1c(=O)c2c(c3cc(Nc4ccnc(Cl)c4C#N)ccc31)NC(C)(C)CCO2 [Example 1f]"
  Assigned Label: -1
- Compound: "Cn1c(=O)c2c(c3cc(Nc4ccnc(Cl)c4C#N)ccc31)N[C@@H](C1CC1)COC2 [Example 9b]"
  Assigned Label: -1

Data provenance: patent US20230287003A1
